Each record here notes measured IC50.
Molecular target: HCV NS3/4A protease genotype 1b (Hepatitis C virus genotype 1b, UniProt P26663)
Sequence (P26663 1027-1657): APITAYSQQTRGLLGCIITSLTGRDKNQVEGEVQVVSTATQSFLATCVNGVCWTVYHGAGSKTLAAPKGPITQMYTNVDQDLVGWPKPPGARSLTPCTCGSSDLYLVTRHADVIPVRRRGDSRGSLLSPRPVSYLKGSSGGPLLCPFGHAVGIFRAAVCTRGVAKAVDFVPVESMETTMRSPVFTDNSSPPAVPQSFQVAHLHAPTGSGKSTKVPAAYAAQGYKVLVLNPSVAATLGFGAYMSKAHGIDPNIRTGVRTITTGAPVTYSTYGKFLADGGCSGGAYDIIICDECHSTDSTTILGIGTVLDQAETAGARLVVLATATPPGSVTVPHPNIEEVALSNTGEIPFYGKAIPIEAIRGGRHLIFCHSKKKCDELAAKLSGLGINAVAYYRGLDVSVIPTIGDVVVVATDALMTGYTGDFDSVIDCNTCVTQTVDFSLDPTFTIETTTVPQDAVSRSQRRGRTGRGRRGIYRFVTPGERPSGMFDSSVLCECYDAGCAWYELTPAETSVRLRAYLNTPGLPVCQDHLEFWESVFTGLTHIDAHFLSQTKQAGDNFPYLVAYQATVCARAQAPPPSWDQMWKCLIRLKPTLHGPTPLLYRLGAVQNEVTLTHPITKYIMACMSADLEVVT
Sequence (P26663 1658-1711): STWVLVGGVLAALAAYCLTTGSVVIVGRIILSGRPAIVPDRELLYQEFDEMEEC
Assay: HCV NS3/4A protease time-resolved fluorescence (TRF) assay, Ki against genotype 1b
Assay type: biochemical
Details: IC50 [gt-1b] (nM), NS3/4A genotype 1b, enzyme 0.2 nM

{"columns": ["compound", "measurement units", "IC50"],
 "data": [
  ["CCOC(=O)N[C@H]1CCCCC/C=C\\[C@@H]2C[C@@]2(C(=O)NS(=O)(=O)C2(C)CC2)NC(=O)[C@@H]2C[C@]3(CCc4c(c(C5CC5)nc5cc(OC)ccc45)O3)CN2C1=O [Example 138]", "nM", 0.043],
  ["Cc1nc2ccc(Cl)cc2c2c1O[C@]1(CC2)C[C@H]2C(=O)N[C@]3(C(=O)NS(=O)(=O)C4(C)CC4)C[C@H]3/C=C\\CCCCC[C@H](NC(=O)OC(C)(C)C(F)(F)F)C(=O)N2C1 [Example 333]", "nM", 0.01],
  ["CCOC(=O)N[C@H]1CCCCC/C=C\\[C@@H]2C[C@@]2(C(=O)NS(=O)(=O)C2(C)CC2)NC(=O)[C@@H]2C[C@]3(CCc4c(c(C(F)F)nc5ccccc45)O3)CN2C1=O [Example 329]", "nM", 0.032],
  ["CCc1ccc2nc(C)c3c(c2c1)C(F)C[C@]1(C[C@H]2C(=O)N[C@]4(C(=O)NS(=O)(=O)C5(C)CC5)C[C@H]4/C=C\\CCCCC[C@H](NC(=O)OC(C)(C)C)C(=O)N2C1)O3 (single isomer, unassigned) [Example 315]", "nM", 1.29]
]}

// data source = patent US8987195B2
